B1: Intersectin-2, residues 1129 to 1183; numbered along this chain, Q9NZM3 (parent)
chain: VCQVIAMYDYAANNEDELSFSKGQLINVMNKDDPDWWQGEINGVTGLFPSNYVKM

Variants of: B1
measurementProtocol: abundance fitness (aPCA) (normalised: wild type 0, dead -1); higher = more abundant; growth selection in yeast, the domain comes from the species named
conditionParameters: Homo sapiens
outcomeMeasure: abundance fitness
Answer as a number with no unit attached.

(Q) Provide only the value of recorded abundance fitness for "D9C"
(A) -0.189

(Q) Please report abundance fitness for the following variant: "S21C"
(A) -0.053

(Q) Identify measured abundance fitness corresponding to "K54Y"
(A) -0.104

(Q) Supply reported abundance fitness belonging to this variant: "L25E"
(A) 0.057

(Q) # return recorded abundance fitness for input "D9F"
(A) -0.364

(Q) Return the recorded abundance fitness value; entry: "G43P"
(A) -0.908

(Q) Identify measured abundance fitness associated with "V4R"
(A) -0.458

(Q) # return recorded abundance fitness for entry "A11G"
(A) -0.03

(Q) Specify reported abundance fitness for the variant shown: "Y8Q"
(A) -0.084

(Q) Quick one: give measured abundance fitness for "L25W"
(A) -0.098

(Q) Given "G39H" , respond with its abundance fitness.
(A) -0.896

(Q) Check the records and state abundance fitness for "A11R"
(A) -0.01

(Q) Provide one value: measured abundance fitness of "N30C"
(A) 0.005

(Q) Return reported abundance fitness. Input variant: "K31I"
(A) 0.029

(Q) Answer with the recorded abundance fitness of "V53P" only.
(A) -0.905

(Q) Assign abundance fitness to the following record: "K22I"
(A) -0.063

(Q) Please list abundance fitness recorded for the variant "G46N"
(A) -0.483

(Q) For the variant "G46F" , report abundance fitness.
(A) -0.864

(Q) Give the reported value of abundance fitness for this record: "D33M"
(A) -0.12

(Q) Return abundance fitness for the following variant: "N30R"
(A) -0.019

(Q) Hello, please tell me recorded abundance fitness for this one: "M29E"
(A) -0.006

(Q) Provide only the value of recorded abundance fitness for "K22R"
(A) -0.121
